target: human adenosine A2A receptor (Homo sapiens, UniProt P29274); construct: expressed in transfected cells; host or cells: CHO cells, Semliki Forest virus expression system; membrane preparation; assay: Human adenosine A2A receptor [3H]-SCH-58261 binding assay; conditions: calculated ratio of the affinity to the HA1 receptor to the HA2a receptor
Sequence (P29274 whole entry): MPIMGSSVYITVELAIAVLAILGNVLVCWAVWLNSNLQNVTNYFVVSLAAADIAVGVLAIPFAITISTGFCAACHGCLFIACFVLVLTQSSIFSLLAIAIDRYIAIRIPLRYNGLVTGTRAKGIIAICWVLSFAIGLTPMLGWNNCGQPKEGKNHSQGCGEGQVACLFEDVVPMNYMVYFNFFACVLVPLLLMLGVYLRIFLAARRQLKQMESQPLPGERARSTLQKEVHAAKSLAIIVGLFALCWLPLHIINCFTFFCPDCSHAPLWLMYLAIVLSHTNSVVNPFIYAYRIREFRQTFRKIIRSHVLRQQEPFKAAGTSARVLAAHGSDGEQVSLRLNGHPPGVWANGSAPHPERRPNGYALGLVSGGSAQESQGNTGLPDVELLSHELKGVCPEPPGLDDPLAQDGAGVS
MEASURED QUANTITY: selectivity (A1/A2a)

COMPOUND: COc1ccc(-c2nc3cc(C(=O)NC4CCC4)cc(N)n3n2)s1 [Example 70]
SYSTEM UNDER TEST: human adenosine A2A receptor (Homo sapiens, UniProt P29274)
selectivity (A1/A2a): 1.3

I: COc1ccc(-c2nc3cc(C(=O)N(CCc4ccccc4)Cc4ccccc4)cc(N)n3n2)s1 [Example 75]
II: Cc1ccc(-c2nc3cc(C(=O)N(C)Cc4ccccc4)cc(N)n3n2)s1 [Example 116]
III: COc1cc(CNC(=O)c2cc(N)n3nc(-c4ccco4)nc3c2)cc(OC)c1OC [Example 111]
IV: COc1ccccc1CCNC(=O)c1cc(N)n2nc(-c3ccccn3)nc2c1 [Example 45]
In: Ascending by selectivity (A1/A2a), please. Please, when replying, give the labels in the order that was requested.
Out: I, IV, II, III
(I: 0.6, IV: 2.4, II: 11.1, III: 27.1)

====

biological target: human adenosine A2A receptor (Homo sapiens, UniProt P29274); construct: expressed in transfected cells; host or cells: CHO cells, Semliki Forest virus expression system; membrane preparation; test: Human adenosine A2A receptor [3H]-SCH-58261 binding assay; conditions: recombinant human A2A in CHO cell membranes, [3H]-SCH-58261, Cheng-Prussoff; read-out: Ki hA2A
MEASURED QUANTITY: Ki (nM)

MOLECULE: CC(C)N(C)C(=O)c1cc(N)n2nc(-c3ccccn3)nc2c1 [Example 411]
Ki / nM: 62.3

P: CN(C)C(=O)CN(C)C(=O)c1cc(N)n2nc(-c3nccs3)nc2c1 [Example 399]
Q: CCC1CCC(C)N(C(=O)c2cc(N)n3nc(-c4ccccn4)nc3c2)C1 (stereo not shown) [Example 430]
R: CC(=O)N(C)C1CCN(C(=O)c2cc(N)n3nc(-c4nccs4)nc3c2)C1 (stereo not shown) [Example 403]
In: Ascending by Ki, please. Please, when replying, give the labels in the order that was requested.
Out: Q, P, R
(Q: 63.6 nM, P: 101 nM, R: 398 nM)

====

molecular target: human adenosine A2A receptor (Homo sapiens); construct: expressed in transfected cells; host or cells: CHO cells, Semliki Forest virus expression system; membrane preparation; assay: Human adenosine A2A receptor [3H]-SCH-58261 binding assay; details: calculated ratio of the affinity to the HA1 receptor to the HA2a receptor
MEASURED QUANTITY: selectivity (A1/A2a)

Worked cases, selectivity (A1/A2a) given:
COMPOUND: CCN(CC)C(=O)c1cc(N)n2nc(-c3ccccc3)nc2c1
selectivity (A1/A2a): 15.0
--
COMPOUND: COCCN(CCOC)C(=O)c1cc(N)n2nc(-c3ccc(Cl)o3)nc2c1
selectivity (A1/A2a): 20.2

A: Nc1cc(C(=O)NC2CCc3ccccc32)cc2nc(-c3ccoc3)nn12 (centres unmarked)
B: CCN(Cc1ccccc1)C(=O)c1cc(N)n2nc(-c3ccccn3)nc2c1
In: For A and B , which recorded selectivity (A1/A2a) is lower? Kindly give the label for the entry you pick.
Out: A
(A: 9.4, B: 15.3)

====

target: human adenosine A2A receptor (Homo sapiens); construct: expressed in transfected cells; host or cells: CHO cells, Semliki Forest virus expression system; membrane preparation; experiment: Human adenosine A2A receptor [3H]-SCH-58261 binding assay; conditions: affinity to human adenosine A2A receptor; read-out: Ki HA2A
MEASURED QUANTITY: Ki (µM)

MOLECULE: COc1ccccc1CNC(=O)c1cc(N)n2nc(-c3sccc3C)nc2c1 [Example 192]
MEASURED QUANTITY: Ki
RESULT: 0.129
--
MOLECULE: CCN(Cc1ccccc1F)C(=O)c1cc(N)n2nc(-c3ccc(OC)s3)nc2c1 [Example 76]
MEASURED QUANTITY: Ki
RESULT: 0.0285

I: Cc1ccc(-c2nc3cc(C(=O)NCc4ccccc4)cc(N)n3n2)o1 [Example 210]
II: CCCN(CCC)C(=O)c1cc(N)n2nc(-c3nccs3)nc2c1 [Example 331]
III: CCCCNC(=O)c1cc(N)n2nc(-c3cc(Br)co3)nc2c1 [Example 168]
IV: Nc1cc(C(=O)NC2CCC2)cc2nc(-c3ccc[nH]3)nn12 [Example 95]
In: Ascending by Ki, please. Please, when replying, give the labels in the order that was requested.
Out: III, I, II, IV

a: COc1ccccc1CNC(=O)c1cc(N)n2nc(-c3nccs3)nc2c1 [Example 130]
b: CCCCNC(=O)c1cc(N)n2nc(-c3ccccc3O)nc2c1 [Example 158]
c: Nc1cc(C(=O)NC2CCc3ccccc32)cc2nc(-c3ccoc3)nn12 (stereo not drawn) [Example 223]
In: Descending sort on Ki required. Please, when replying, give the labels in the order that was requested.
Out: b, c, a

====

molecular target: human adenosine A2A receptor (Homo sapiens); construct: expressed in transfected cells; host or cells: CHO cells, Semliki Forest virus expression system; membrane preparation; test: Human adenosine A2A receptor [3H]-SCH-58261 binding assay; conditions: affinity to human adenosine A2A receptor; read-out: Ki HA2A
MEASURED QUANTITY: Ki (nM)

Worked cases, Ki given:
MOLECULE: CCN(C(=O)c1cc(N)n2nc(-c3sccc3C)nc2c1)C(C)C [Example 143]
Ki, nM: 121
--
MOLECULE: CCN(CC)C(=O)c1cc(N)n2nc(-c3ccccc3O)nc2c1 [Example 101]
Ki, nM: 33.3
--
MOLECULE: Cn1cccc1-c1nc2cc(C(=O)N3CCCC3)cc(N)n2n1 [Example 134]
Ki, nM: 287
--
MOLECULE: CCCCCN(C)C(=O)c1cc(N)n2nc(-c3ccc(Br)o3)nc2c1 [Example 278]
Ki, nM: 5.6
--
MOLECULE: CCN1CCN(C(=O)c2cc(N)n3nc(-c4ccc(Br)o4)nc3c2)CC1 [Example 299]
Ki, nM: 123

I: CC(C)N(Cc1ccccc1)C(=O)c1cc(N)n2nc(-c3ccccc3O)nc2c1 [Example 121]
II: CCCCN(CCC)C(=O)c1cc(N)n2nc(-c3ccc(Br)o3)nc2c1 [Example 342]
III: Nc1cc(C(=O)NCc2ccccc2Br)cc2nc(-c3ccc(Br)o3)nn12 [Example 167]
In: Ascending by Ki, please. Please, when replying, give the labels in the order that was requested.
Out: II, I, III

P: CCN(CC)C(=O)c1cc(N)n2nc(-c3ccco3)nc2c1 [Example 105]
Q: Cc1ccc(-c2nc3cc(C(=O)NCc4ccc(F)cc4)cc(N)n3n2)o1 [Example 213]
In: Ki comparison. Which is larger, P or Q ? Kindly give the label for the entry you pick.
Out: Q
(Q: 73.2 nM, P: 50.9 nM)

a: Nc1cc(C(=O)N2CCCCC2)cc2nc(-c3ccccc3O)nn12 [Example 102]
b: CCN(C(=O)c1cc(N)n2nc(-c3ccoc3)nc2c1)C(C)C [Example 221]
c: Cc1ccsc1-c1nc2cc(C(=O)NCc3ccccc3Cl)cc(N)n2n1 [Example 191]
In: Descending sort on Ki required. Please, when replying, give the labels in the order that was requested.
Out: b, c, a

1: Nc1cc(C(=O)NC2CCCCC2)cc2nc(-c3cccs3)nn12 [Example 162]
2: Cc1ccsc1-c1nc2cc(C(=O)N3CCCCC3)cc(N)n2n1 [Example 189]
In: Ki comparison. Which is larger, 1 or 2 ? Kindly give the label for the entry you pick.
Out: 2

I: Nc1cc(C(=O)N2CCCC2)cc2nc(-c3nccs3)nn12 [Example 25]
II: Cc1ccsc1-c1nc2cc(C(=O)NC3CCc4ccccc43)cc(N)n2n1 (stereo not shown) [Example 187]
III: CCCN(CCC)C(=O)c1cc(N)n2nc(-c3ccc(Br)o3)nc2c1 [Example 338]
In: Descending sort on Ki required. Please, when replying, give the labels in the order that was requested.
Out: II, I, III
(II: 224 nM, I: 50.4 nM, III: 3.1 nM)

1: CN(C(=O)c1cc(N)n2nc(-c3ccoc3)nc2c1)C1CCCCC1 [Example 222]
2: CCCCNC(=O)c1cc(N)n2nc(-c3cccn3C)nc2c1 [Example 178]
In: Ki comparison. Which is larger, 1 or 2 ? Kindly give the label for the entry you pick.
Out: 1

A: CCN(Cc1ccccc1)C(=O)c1cc(N)n2nc(-c3cccnc3)nc2c1 [Example 88]
B: Cn1cccc1-c1nc2cc(C(=O)NCc3ccccc3Br)cc(N)n2n1 [Example 182]
C: CCCCN(Cc1ccccc1)C(=O)c1cc(N)n2nc(-c3cccnc3)nc2c1 [Example 89]
D: Nc1cc(C(=O)NCc2ccc(F)cc2)cc2nc(-c3ccccn3)nn12 [Example 43]
In: Ascending by Ki, please. Please, when replying, give the labels in the order that was requested.
Out: B, D, C, A
(B: 54.6 nM, D: 87.7 nM, C: 174 nM, A: 278 nM)

a: COc1ccc(-c2nc3cc(C(=O)NCCc4ccccc4Cl)cc(N)n3n2)s1 [Example 78]
b: Nc1cc(C(=O)N2CC=CC2)cc2nc(-c3nccs3)nn12 [Example 281]
In: For a and b , which recorded Ki is lower? Kindly give the label for the entry you pick.
Out: b

Where do these numbers come from? They come from patent US6506772B1.
